B1: EPB41L3 (parent)
chain: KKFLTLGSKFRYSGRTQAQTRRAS

Variants of: B1
TEST_DESCRIPTION: protein stability index of a GFP-peptide fusion (GPS, HEK-293T) (PSI 1-6); higher = more stable;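 also: lentivirally expressed fusions sorted by FACS into six bins by GFP to DsRed ratio, PSI derived from sequencing read proportions per bin multiplied by bin number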
EXPERIMENTAL_CONTEXT: c terminus: a fixed tail appended
Each entry below carries its reported protein stability index.
Give the value as a plain number.

Previously resolved entries follow.
MUTANT_LABEL: L4P
protein stability index: 3.8
//
MUTANT_LABEL: K2H
protein stability index: 2.4
//
MUTANT_LABEL: T16C
protein stability index: 2.2

Fill blank: measured protein stability index of the variant R21F is ____.
1.98
